- target-or-test-system: T1, 4H264-bH
- T1 chain: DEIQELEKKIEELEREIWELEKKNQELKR
- experimental-protocol: two-hybrid library CCNG1;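 further: natural log of median RNA to DNA barcode read ratio; higher means stronger binding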
observable: interaction score
Just the number, please.

binder: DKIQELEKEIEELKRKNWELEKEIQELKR [4H2162-bH]
interaction score: 0.0138

binder: DKIQELEKKNEELEREIWELKKENQELKR [4H2444-bH]
interaction score: -2.12

binder: DENQQLEQKIQELEQKIQELKWKNQELKQ [4H1328-bN]
interaction score: 1.68

As a next step, examine the binder that follows.
Ask: Entry under review: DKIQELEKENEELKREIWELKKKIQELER [4H2253-bH] . Reported interaction score?
Reply: 0.653
